# target: BhbR2 (MarR-family transcription factor)
# Construct: C-terminal His-tagged BhbR2 (179 amino acids), expressed in E. coli BL21(DE3)
# assay_explanation: SPR (Biacore T200, protein immobilized on CM7 chip, steady-state affinity)

{"compound": "O=C(O)c1ccc(O)c(Br)c1 [3-Br-4-HB, 3-bromo-4-hydroxybenzoate]", "target": "BhbR2 (MarR-family transcription factor)", "Kd, µM": 2.1}
